Measured TGI by item
tested on: DMS 273 small cell lung; test: NCI tumour cell line growth inhibition, 48 h
reported.property: TGI

>>> df
                                   molecule  observed_result
0  COC(=O)[C@@H]1CCCCC[C@H]2C(CO)=C(C)C(=O)C12 (some centres undefined)         > 100 µM
1  N.N.N.N.O=C([O-])C(Cl)Cl.O=C([O-])C(Cl)Cl.[Co+3].[O-][Cl+3]([O-])([O-])[O-]         > 100 µM
2  CC1=C(C(=O)Nc2cccc(Cl)c2)C(c2ccccc2F)C(C(=O)Nc2cccc(Cl)c2)=C(C)N1          26.4 µM
3    CN(C)CC1CCC/C1=N\O (centres undefined)         > 100 µM
4    O=[N+]([O-])c1cnn(C2=CNc3ccccc3N=C2)c1         > 100 µM
5  O=C(c1ccncc1)n1nc(-c2ccccc2)c(N=Nc2ccccc2[N+](=O)[O-])c1-c1ccccc1         > 100 µM
6  CCOC(=O)C1(C#N)C(c2ccccc2)CC(O)(c2ccc(Cl)cc2)C(C(=O)c2ccc(Cl)cc2)C1c1ccccc1 (centres undefined)         > 100 µM
7  COC(=O)C1=C(C(=O)OC)SC(=CC#CC=C2SC(C(=O)OC)=C(C(=O)OC)S2)S1          38.4 µM
8  COc1ccc(N2C(=O)[C@H]3CC(C)c4c([nH]c5ccccc45)[C@H]3C2=O)cc1 (some centres undefined)          17.2 µM

----------
system: IGROV1 ovarian; assay: NCI tumour cell line growth inhibition, 48 h
Measured TGI by item
reported.property: TGI

compound	observed.result
Cc1ccc(-c2cc(-c3ccccc3)c(C#N)c(=O)n2C2OC(CO)C(O)C(O)C2O)cc1 (stereo not given)	> 100 µM
NC(=O)c1csc(C2(O)COC(CO)C2O)n1 (stereo not given)	> 100 µM
COc1ccccc1/C=C/C(=O)c1ccccc1	8.7 µM
COc1ccc(-c2ccc(-c3ccc(C(=N)N)cn3)o2)cc1	19 µM
Cc1cc2ncn(C3CCCCO3)c2cc1C (stereo not given)	> 100 µM
C/C=C(/C)C(=O)OC1CC(C)[C@H]2CC(=O)C(C)=C2CC1C(C)(C)OC(C)=O (stereo not given in full)	> 100 µM
CCCCSc1nsc(N(C(=O)c2ccccc2)C(=O)c2ccccc2)n1	> 100 µM
CCP(=O)(OC)C1=CCN(C(=O)OCC[Si](C)(C)C)CC1 (stereo not given)	> 100 µM
Cc1cc(S(=O)(=O)NC#N)c(S/C(=N\Nc2ccc([N+](=O)[O-])cc2)c2ccc(Cl)cc2)cc1Cl	> 100 µM
S=C(N/N=C\C(=N/NC(=S)N1CCCCC1)c1ccccc1)N1CCCCC1	3.45 µM
CCn1c2ccc(C(=O)CCCN3CCCCC3)cc2c2cc(C(=O)CCCN3CCCCC3)ccc21	8.73 µM
O=S(=O)(O)c1ccc(N=Nc2ccc(N=Nc3ccc(/C=C/c4ccc(N=[N+]([O-])c5ccc(/C=C/c6ccc(N=Nc7ccc(N=Nc8ccc(S(=O)(=O)O)cc8)cc7)cc6S(=O)(=O)O)c(S(=O)(=O)O)c5)cc4S(=O)(=O)O)c(S(=O)(=O)O)c3)cc2)cc1	> 100 µM
COc1cccc2c1C(=O)c1c(O)c3c(c(O)c1C2=O)C[C@H](O)C[C@@H]3OC1CC(N)C(O)C(C)O1 (stereo not given in full)	12.4 µM
CCCCC1=C(C(=O)N2CCOCC2)C2(OCCO2)C1=O	37 µM
CCCOc1ccc2nc(NC(=O)OC)[nH]c2c1	> 100 µM
CCCCN(CCCC)c1c([N+](=O)[O-])c(=O)nc2ccccn12	> 100 µM
N.N.N.N.O=C([O-])C(Cl)Cl.O=C([O-])C(Cl)Cl.[Co+3].[O-][Cl+3]([O-])([O-])[O-]	> 100 µM
COc1ccc(Nc2nc(N)c(C(=O)c3c[nH]c4ccccc34)s2)cc1	> 100 µM
NC(=O)c1cc2c3ccccc3ccn2c1-c1ccccc1	33.4 µM
COC(=O)c1ccccc1NC(=O)C(=O)NNC(=O)c1ccncc1	> 100 µM
COc1ccccc1CN=C1Nc2ccncc2S(=O)(=O)N1c1ccccc1	> 100 µM
CSc1nc(NC(C)C)c2c(n1)Sc1nc3ccccc3n1N=C2	> 100 µM
O=C(c1ccncc1)n1nc(-c2ccccc2)c(N=Nc2ccccc2[N+](=O)[O-])c1-c1ccccc1	> 100 µM
C[C@]12CCCC(=O)C1(O)C[C@H](C(=O)O)CC2 (stereo not given in full)	> 100 µM
CS(=O)(=O)Nc1ccc2c(c1)N(S(C)(=O)=O)CC2CCl (stereo not given)	> 100 µM
Cc1cc(C)nc(NS(=O)(=O)c2ccc(Nc3c4ccccc4nc4c(C(=O)N5CCN(CCOS(C)(=O)=O)CC5)cccc34)cc2)n1	> 100 µM
CC(C)N1CC2CC(CN(C(=O)c3ccccc3)C2)C1	> 100 µM
Cc1cccc(-n2c(=S)[nH]c3c(sc(=O)n3-c3ccccc3C)c2=O)c1	> 100 µM
CN(C)CCNC(=O)c1cc(Cl)cc2ccc(-c3ccccc3)nc12	14.2 µM
CCOc1cccc(/C=N/NC(=O)C(=O)Nc2cccc(C(F)(F)F)c2)c1O	25.8 µM
Cc1[nH]nc(C(=O)n2nc(N)c3ccccc32)c1[N+](=O)[O-]	> 100 µM
Cc1cc(C)c(C(=O)c2no[n+]([O-])c2C(=O)c2c(C)cc(C)c(Br)c2C)c(C)c1Br	23.3 µM
O=C(N/N=C(/CCN1CCCC1)CC(c1ccccc1)c1c(O)c2ccccc2oc1=O)c1ccncc1 (stereo not given)	> 100 µM
CN(C)/N=C(/c1nc2ccc(Cl)cc2[nH]c1=O)C(O)c1ccc(C(O)/C(=N\N(C)C)c2nc3ccc(Cl)cc3[nH]c2=O)cc1 (stereo not given)	> 100 µM
CN(C)CCCNC(=O)c1ccc2c(c1)oc1cc3ccccc3c(=O)n12	43.5 µM
CC(CCC(=O)O)C(=O)O (stereo not given)	> 100 µM
O=C(O)c1cccc2cccc(-c3cccc4cccc(C(=O)O)c34)c12	> 100 µM
Nc1nc(Cl)cc(NCC2(O)CC2)n1	> 100 µM
Cc1cc2c(cc1Cl)SC1=NN(C)C(N(C)C)N1S2(=O)=O (stereo not given)	> 100 µM
CNCCn1c(=O)c2cc(OC)c(OC)cc2c2ccc3cc4c(cc3c21)OCO4	2.29 µM
